B1: Far upstream element-binding protein 1, residues 98 to 169; numbered along this chain, Q96AE4 (parent)
chain: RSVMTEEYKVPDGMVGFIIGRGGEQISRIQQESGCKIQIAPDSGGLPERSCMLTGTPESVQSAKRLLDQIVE

Variants of: B1
Experiment: abundance fitness (aPCA) (normalised: wild type 0, dead -1); higher = more abundant; growth selection in yeast, the domain comes from the species named
Settings: Homo sapiens
READOUT NAME: abundance fitness
Output: the number by itself.

Examples from the recorded data:
SEQ: RSVMTEEYKVPDGMVGFIIGRGGEQISRAQQESGCKIQIAPDSGGLPERSCMLTGTPESVQSAKRLLDQIVE
abundance fitness: -0.226
--
SEQ: RSVMTEEYKVPDGMVGFIIGRGGEQISRIQQESGCKIQIAPDSGGLPERSCMLTGTPESVGSAKRLLDQIVE
abundance fitness: 0.001

# lookup: abundance fitness of RSVMTEEYKVPDGMVGFIIGRGGEQISRIQQESGCKIQIAPDSGGLPERSCMLTGTPEVVQSAKRLLDQIVE
-0.116

Same read-out for RSVMTEEYKVPAGMVGFIIGRGGEQISRIQQESGCKIQIAPDSGGLPERSCMLTGTPESVQSAKRLLDQIVE ?
0.019

Same read-out for RSVMTEEYKVPDGMVGFIIGRGGEQISRIQQESGCKIQIAPDSGGLPERSCELTGTPESVQSAKRLLDQIVE ?
-0.053

Same read-out for RSVMTEEYKVPDGMVGFIIGRGGEQISRIQQESGCKIQIAPDAGGLPERSCMLTGTPESVQSAKRLLDQIVE ?
-0.016

Same read-out for RSVMTEEYKVPDGMVIFIIGRGGEQISRIQQESGCKIQIAPDSGGLPERSCMLTGTPESVQSAKRLLDQIVE ?
-0.144

Same read-out for RSVMTEEYKVPDGMVGFIIGRGGEQISRIQHESGCKIQIAPDSGGLPERSCMLTGTPESVQSAKRLLDQIVE ?
-0.06

Same read-out for RSVMTEEYKVPDDMVGFIIGRGGEQISRIQQESGCKIQIAPDSGGLPERSCMLTGTPESVQSAKRLLDQIVE ?
0

Same read-out for RSVMTEEYKGPDGMVGFIIGRGGEQISRIQQESGCKIQIAPDSGGLPERSCMLTGTPESVQSAKRLLDQIVE ?
-0.304

Same read-out for RGVMTEEYKVPDGMVGFIIGRGGEQISRIQQESGCKIQIAPDSGGLPERSCMLTGTPESVQSAKRLLDQIVE ?
-0.003
